Molecular target: CYP450 1A2 (Homo sapiens, UniProt P05177)
Sequence (P05177 1-516): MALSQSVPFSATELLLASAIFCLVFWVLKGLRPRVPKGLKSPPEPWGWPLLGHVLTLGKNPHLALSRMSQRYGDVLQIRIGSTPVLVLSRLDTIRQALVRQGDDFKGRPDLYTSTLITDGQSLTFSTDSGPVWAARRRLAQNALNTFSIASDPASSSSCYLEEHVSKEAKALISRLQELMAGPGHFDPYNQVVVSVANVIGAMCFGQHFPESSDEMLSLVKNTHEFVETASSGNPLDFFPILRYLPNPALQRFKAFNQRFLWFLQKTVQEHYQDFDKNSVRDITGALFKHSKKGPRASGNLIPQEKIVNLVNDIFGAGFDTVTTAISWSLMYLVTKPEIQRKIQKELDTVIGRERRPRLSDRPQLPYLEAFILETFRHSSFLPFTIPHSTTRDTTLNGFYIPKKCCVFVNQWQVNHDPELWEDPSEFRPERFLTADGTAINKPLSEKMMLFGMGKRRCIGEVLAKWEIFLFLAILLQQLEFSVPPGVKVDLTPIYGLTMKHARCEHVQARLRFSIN
Assay: CYP450 inhibition, recombinant isoform
Assay type: in vitro ADME
Assay Endpoint: IC50

>>> result("COc1nc(-c2cc(C)c(N[C@@H](C)c3cc(F)cc(F)c3)nn2)ccc1-n1cnc(C)c1")
"12 µM"
>>> result("COc1nc(-c2cc(C)c(N[C@@H](C)c3ccc(F)cc3)nn2)ccc1-n1cnc(C)c1")
"37 µM"
>>> result("COc1nc(-c2cc(C)c(N[C@@H](C)c3c(F)cc(F)cc3F)nn2)ccc1-n1cnc(C)c1")
"3.6 µM"

###

Assay: Liver microsomal stability, mouse
Format: in vitro ADME
Details: liver microsomes
Items are presented alongside their recorded remaining at 0.5 h, 1 µM.
Assay Endpoint: remaining at 0.5 h, 1 µM (%)

>>> recorded_number("COc1nc(-c2cc(C)c(N[C@@H](C)c3cc(F)cc(F)c3)nn2)ccc1-n1cnc(C)c1 [Compound 2]")
91
>>> recorded_number("COc1nc(-c2cc(C)c(N[C@@H](C)c3c(F)cc(F)cc3F)nn2)ccc1-n1cnc(C)c1 [Compound 3]")
100
>>> recorded_number("COc1nc(-c2cc(C)c(N[C@@H](C)c3ccc(F)cc3)nn2)ccc1-n1cnc(C)c1 [Compound 1]")
76

###

Target: CYP450 3A4 (Homo sapiens)
Experiment: CYP450 inhibition, recombinant isoform
Assay type: in vitro ADME
This section presents compounds with their documented IC50 values.
Assay Endpoint: IC50 (µM)

>>> recorded_number("COc1nc(-c2cc(C)c(N[C@@H](C)c3cc(F)cc(F)c3)nn2)ccc1-n1cnc(C)c1 [Compound 2]")
9.4
>>> recorded_number("COc1nc(-c2cc(C)c(N[C@@H](C)c3ccc(F)cc3)nn2)ccc1-n1cnc(C)c1 [Compound 1]")
8.9
>>> recorded_number("COc1nc(-c2cc(C)c(N[C@@H](C)c3c(F)cc(F)cc3F)nn2)ccc1-n1cnc(C)c1 [Compound 3]")
17

###

Experiment: Estimation of effective AUC and unbound Ceffective in rodents
Details: rat, plasma
Assay Endpoint: AUC (ng·h/mL)

>>> recorded_number("COc1nc(-c2cc(C)c(N[C@@H](C)c3cc(F)cc(F)c3)nn2)ccc1-n1cnc(C)c1 [Compound 2]")
13800

###

Experiment: Kinetic aqueous solubility, PBS pH 7.4
Assay type: physicochemical
Settings: PBS buffer, pH 7.4, aqueous buffer, kinetic from dmso stock
Measured solubility kinetic of individual entries
Assay Endpoint: solubility kinetic

>>> result("COc1nc(-c2cc(C)c(N[C@@H](C)c3c(F)cc(F)cc3F)nn2)ccc1-n1cnc(C)c1")
"< 1.3 µM"
>>> result("COc1nc(-c2cc(C)c(N[C@@H](C)c3ccc(F)cc3)nn2)ccc1-n1cnc(C)c1")
"6.6 µM"
>>> result("COc1nc(-c2cc(C)c(N[C@@H](C)c3cc(F)cc(F)c3)nn2)ccc1-n1cnc(C)c1")
"< 1.3 µM"

###

Assay: MDR1-MDCK permeability
Assay type: in vitro ADME
Details: dog
Assay Endpoint: Papp A→B (×10⁻⁶ cm/s)

>>> recorded_number("COc1nc(-c2cc(C)c(N[C@@H](C)c3ccc(F)cc3)nn2)ccc1-n1cnc(C)c1")
37.2
>>> recorded_number("COc1nc(-c2cc(C)c(N[C@@H](C)c3c(F)cc(F)cc3F)nn2)ccc1-n1cnc(C)c1")
30.2
>>> recorded_number("COc1nc(-c2cc(C)c(N[C@@H](C)c3cc(F)cc(F)c3)nn2)ccc1-n1cnc(C)c1")
23.3

###

Test: Human PK and 50% effective dose projection
Conditions: human, plasma
Assay Endpoint: AUC (ng·h/mL)

>>> recorded_number("COc1nc(-c2cc(C)c(N[C@@H](C)c3cc(F)cc(F)c3)nn2)ccc1-n1cnc(C)c1 [Compound 2]")
4320

###

Test: GLP 28-d repeat-dose toxicity and in vivo micronucleus study in rats
Set-up: species or system rat
Details: male, rat, in vivo, 60 mg/kg
Assay Endpoint: AUC

>>> result("COc1nc(-c2cc(C)c(N[C@@H](C)c3cc(F)cc(F)c3)nn2)ccc1-n1cnc(C)c1")
"586 µg·h/mL"

###

Test: Plasma protein binding, equilibrium dialysis
Assay type: in vitro ADME
Conditions: human
Assay Endpoint: fraction unbound

>>> recorded_number("COc1nc(-c2cc(C)c(N[C@@H](C)c3ccc(F)cc3)nn2)ccc1-n1cnc(C)c1")
0.004
>>> recorded_number("COc1nc(-c2cc(C)c(N[C@@H](C)c3c(F)cc(F)cc3F)nn2)ccc1-n1cnc(C)c1")
0.003

###

Molecular target: CYP450 2C19 (Homo sapiens)
Sequence (P33261 whole entry, canonical isoform): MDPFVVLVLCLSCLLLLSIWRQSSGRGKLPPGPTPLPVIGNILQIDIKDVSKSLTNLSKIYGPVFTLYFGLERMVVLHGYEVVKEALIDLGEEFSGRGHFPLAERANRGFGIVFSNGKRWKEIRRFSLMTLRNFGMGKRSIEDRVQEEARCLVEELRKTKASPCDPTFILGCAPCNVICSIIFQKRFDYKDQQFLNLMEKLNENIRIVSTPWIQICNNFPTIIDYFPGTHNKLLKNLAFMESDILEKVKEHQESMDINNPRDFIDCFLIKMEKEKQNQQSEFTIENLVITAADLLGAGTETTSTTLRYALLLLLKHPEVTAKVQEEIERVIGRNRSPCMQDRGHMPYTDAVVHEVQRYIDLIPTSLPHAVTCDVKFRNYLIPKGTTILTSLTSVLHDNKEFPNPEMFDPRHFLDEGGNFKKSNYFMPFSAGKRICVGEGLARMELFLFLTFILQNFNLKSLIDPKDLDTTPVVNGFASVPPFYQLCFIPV
Assay: CYP450 inhibition, recombinant isoform
pIC50: −log10 of the molar value.
Assay Endpoint: pIC50

>>> recorded_number("COc1nc(-c2cc(C)c(N[C@@H](C)c3cc(F)cc(F)c3)nn2)ccc1-n1cnc(C)c1")
4.92
>>> recorded_number("COc1nc(-c2cc(C)c(N[C@@H](C)c3c(F)cc(F)cc3F)nn2)ccc1-n1cnc(C)c1")
4.89
>>> recorded_number("COc1nc(-c2cc(C)c(N[C@@H](C)c3ccc(F)cc3)nn2)ccc1-n1cnc(C)c1")
5.16

###

Experiment: Single-dose i.v./po PK in cynomolgus macaques
Assay type: in vivo, cynomolgus macaque
Settings: male, cynomolgus monkey, plasma, iv, 1 mg/kg, Cl, NHP
Assay Endpoint: clearance (mL/min/kg)

>>> recorded_number("COc1nc(-c2cc(C)c(N[C@@H](C)c3cc(F)cc(F)c3)nn2)ccc1-n1cnc(C)c1")
5.52

###

Molecular target: CYP450 3A4 (Homo sapiens, UniProt P08684)
Sequence (P08684 whole entry, canonical isoform): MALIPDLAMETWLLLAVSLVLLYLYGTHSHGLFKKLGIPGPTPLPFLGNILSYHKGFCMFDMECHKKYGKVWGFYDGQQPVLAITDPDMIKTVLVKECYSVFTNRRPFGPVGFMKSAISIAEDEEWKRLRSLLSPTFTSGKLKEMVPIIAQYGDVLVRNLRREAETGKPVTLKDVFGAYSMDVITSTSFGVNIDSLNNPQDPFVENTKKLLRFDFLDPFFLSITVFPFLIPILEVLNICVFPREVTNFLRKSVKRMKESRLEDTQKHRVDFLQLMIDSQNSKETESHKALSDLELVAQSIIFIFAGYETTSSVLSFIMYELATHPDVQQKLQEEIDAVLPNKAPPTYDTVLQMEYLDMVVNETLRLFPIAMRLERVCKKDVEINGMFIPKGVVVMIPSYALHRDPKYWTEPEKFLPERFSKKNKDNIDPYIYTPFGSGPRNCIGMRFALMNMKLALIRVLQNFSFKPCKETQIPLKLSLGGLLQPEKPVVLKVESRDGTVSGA
Assay: CYP450 inhibition, recombinant isoform
Assay type: in vitro ADME
Settings: CYP450 IC50 3A4 (m), probe substrate midazolam
Measured IC50 by item
Assay Endpoint: IC50 (µM)

>>> recorded_number("COc1nc(-c2cc(C)c(N[C@@H](C)c3cc(F)cc(F)c3)nn2)ccc1-n1cnc(C)c1")
42
>>> recorded_number("COc1nc(-c2cc(C)c(N[C@@H](C)c3c(F)cc(F)cc3F)nn2)ccc1-n1cnc(C)c1")
19
>>> recorded_number("COc1nc(-c2cc(C)c(N[C@@H](C)c3ccc(F)cc3)nn2)ccc1-n1cnc(C)c1")
14

###

Molecular target: CYP450 2C9 (Homo sapiens)
Sequence (P11712 whole entry, canonical isoform): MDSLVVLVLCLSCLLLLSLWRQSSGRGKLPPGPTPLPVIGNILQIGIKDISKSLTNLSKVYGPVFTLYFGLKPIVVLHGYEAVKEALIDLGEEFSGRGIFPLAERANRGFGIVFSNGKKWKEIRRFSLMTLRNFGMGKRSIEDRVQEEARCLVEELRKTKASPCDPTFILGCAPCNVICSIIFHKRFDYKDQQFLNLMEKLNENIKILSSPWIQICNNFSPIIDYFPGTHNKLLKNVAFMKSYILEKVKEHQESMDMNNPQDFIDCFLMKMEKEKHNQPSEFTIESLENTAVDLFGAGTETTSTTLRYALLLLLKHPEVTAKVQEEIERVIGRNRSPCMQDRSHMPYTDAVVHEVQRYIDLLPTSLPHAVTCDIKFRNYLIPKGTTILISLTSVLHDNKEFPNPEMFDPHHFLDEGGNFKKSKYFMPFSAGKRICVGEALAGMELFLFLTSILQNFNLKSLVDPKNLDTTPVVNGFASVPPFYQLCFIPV
Assay: CYP450 inhibition, recombinant isoform
pIC50: −log10 of the molar value.
Assay Endpoint: pIC50

>>> recorded_number("COc1nc(-c2cc(C)c(N[C@@H](C)c3ccc(F)cc3)nn2)ccc1-n1cnc(C)c1")
5.89
>>> recorded_number("COc1nc(-c2cc(C)c(N[C@@H](C)c3cc(F)cc(F)c3)nn2)ccc1-n1cnc(C)c1")
5.36
>>> recorded_number("COc1nc(-c2cc(C)c(N[C@@H](C)c3c(F)cc(F)cc3F)nn2)ccc1-n1cnc(C)c1")
5.89

###

Assay: GLP 28-d repeat-dose toxicity and in vivo micronucleus study in rats
Parameters: species or system rat
Conditions: rat, in vivo
Assay Endpoint: NOAEL at 28 d (mg/kg)

>>> recorded_number("COc1nc(-c2cc(C)c(N[C@@H](C)c3cc(F)cc(F)c3)nn2)ccc1-n1cnc(C)c1 [Compound 2]")
60

###

Experiment: Single-dose i.v./po PK in male Sprague-Dawley rats
Assay type: in vivo, rat
Conditions: male, Sprague-Dawley, rat, plasma, iv, 1 mg/kg, CL
Assay Endpoint: clearance (mL/min/kg)

>>> recorded_number("COc1nc(-c2cc(C)c(N[C@@H](C)c3cc(F)cc(F)c3)nn2)ccc1-n1cnc(C)c1")
6

###

# Lookup of reported fraction unbound keyed by entry
Assay: Plasma protein binding, equilibrium dialysis
Type: in vitro ADME
Settings: rat
Assay Endpoint: fraction unbound

>>> recorded_number("COc1nc(-c2cc(C)c(N[C@@H](C)c3ccc(F)cc3)nn2)ccc1-n1cnc(C)c1")
0.001
>>> recorded_number("COc1nc(-c2cc(C)c(N[C@@H](C)c3c(F)cc(F)cc3F)nn2)ccc1-n1cnc(C)c1")
0.003
